Reference source: the array DNA melting data of Ke et al. (doi:10.1101/2024.01.08.574731)

Parameter: folding enthalpy. Scope: all listed entries.
- assay comment: folding enthalpy; higher = less favourable; fluorescence melt of hairpins on a sequencing array, two-state fit
- study conditions: sodium 0.088 M
Reply with just the number (in kcal/mol).

Solved cases below.
1) GCTTAGCGAAAGCCATGC ((.(.((....)).).)); -11.2
2) GCGGTACACCGC ((((....)))); -40.4
3) GGGTGCTCGAAAGAGCCC (((..(((....)))))); -17.7
4) GGATAACGAAAGTTGTCC (((.(((....))).))); -47.7
5) GCGACGAATCGC ((((....)))); -13.1
6) GATATCGCGAAAGCGATC (((..(((....)))))); -7.08

Turning to the following sequence.
Query: Give the reported value of folding enthalpy for this record: GCTCAGGAAACTGAGC ((((((....))))))
Reply: -42.4
